Data credit: patent US8993741B2

# Tested on: Luc-SMNΔ7
# Assay Comment: Luc-SMNΔ7 degradation with proteolysis inhibitors in the presence of CHX
# Assay type: cell-based, human
# Assay Context: 5 hours in the presence of CHX
# Experimental: FIG. 5 is a graph depicting the effect of proteasome inhibitors on inhibiting SMNΔ7 degradation. Luciferase activity is measured after application of proteasome inhibitors (MG132 and Lactacystin), the calpain inhibitor (Calpeptin), the autophagy inhibitor (3-methyladenine; 3-MA), and the lysosomal inhibitor (ammonium chloride; NH4Cl) in the presence of CHX for 5 hours. Error bars represent SDs from three independent experiments. […]
Peptide text beside a SMILES is read from it. * marks the point of attachment. Cbz = O=C(OCc1ccccc1)*
Quantity Kind: effect on decrease in Luc-SMNΔ7 signal

Cl.N [N1-14Cl, ammonium chloride]    no effect
CC(C)C[C@@H](C=O)NC(=O)[C@H](CC(C)C)NC(=O)[C@H](CC(C)C)NC(=O)OCc1ccccc1 [MG132] (Cbz-Leu-Leu-Leu-aldehyde)    much smaller decrease
CC(=O)N[C@@H](CSC(=O)[C@]1([C@@H](O)C(C)C)NC(=O)[C@H](C)[C@@H]1O)C(=O)O    much smaller decrease
Cn1cnc(N)c2ncnc1-2    no effect

Attention now turns to another entry.
Record `CCCC[C@@H](C=O)NC(=O)[C@H](CC(C)C)NC(=O)OCc1ccccc1` , field effect on decrease in Luc-SMNΔ7 signal: no effect
